Hi there, I'd appreciate the recorded inhibition at 15 µM for every entry that follows.
biological target: 5-lipoxygenase (Homo sapiens, UniProt P09917); construct: Human polymorphonuclear leukocytes (neutrophils) were obtained from normal healthy volunteers; endogenous in cells; host or cells: human blood neutrophils from healthy volunteers; assay: 5-Lipoxygenase assay with human neutrophils; format: cell-based; settings: 5 min; Human PMN, dose 15 μm (μM); read-out: % Inhibition 5-HETE
Sequence (P09917 whole entry): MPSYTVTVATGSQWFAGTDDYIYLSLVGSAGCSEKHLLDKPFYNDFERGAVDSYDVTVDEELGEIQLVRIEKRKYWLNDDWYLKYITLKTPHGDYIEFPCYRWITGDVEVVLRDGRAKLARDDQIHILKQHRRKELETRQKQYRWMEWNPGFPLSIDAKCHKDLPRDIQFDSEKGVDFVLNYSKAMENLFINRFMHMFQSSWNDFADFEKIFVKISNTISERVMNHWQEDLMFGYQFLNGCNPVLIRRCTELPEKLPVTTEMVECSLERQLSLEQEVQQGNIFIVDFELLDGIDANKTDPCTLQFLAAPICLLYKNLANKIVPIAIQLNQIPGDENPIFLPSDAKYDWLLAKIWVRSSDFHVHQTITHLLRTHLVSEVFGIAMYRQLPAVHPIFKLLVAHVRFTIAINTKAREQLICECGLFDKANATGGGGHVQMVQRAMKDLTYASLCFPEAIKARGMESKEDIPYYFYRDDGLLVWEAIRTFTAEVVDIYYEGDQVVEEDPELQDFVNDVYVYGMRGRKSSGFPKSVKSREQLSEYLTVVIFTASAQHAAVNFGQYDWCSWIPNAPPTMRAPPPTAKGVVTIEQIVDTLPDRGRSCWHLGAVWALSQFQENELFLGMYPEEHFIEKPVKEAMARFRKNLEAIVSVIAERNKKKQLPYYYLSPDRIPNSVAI
Numbers only here, please. The scale is %.

Data request: Form entry - test system: 5-lipoxygenase (Homo sapiens, UniProt P09917); read-out: inhibition at 15 µM; compound: CON=C1CC(c2ccc(OC)c(OC)c2)C(C)(C)c2cc(OC)ccc21 (centres unmarked)
Data returned: 74

Data request: Form entry - test system: 5-lipoxygenase (Homo sapiens, UniProt P09917); read-out: inhibition at 15 µM; compound: "COc1cc(OC)cc(C2=CC(=O)c3c(OC)cc(OC)cc3C2(C)C)c1"
Data returned: 0

Data request: Form entry - test system: 5-lipoxygenase (Homo sapiens, UniProt P09917); read-out: inhibition at 15 µM; compound: COc1cc(OC)c2c(c1)C(C)(C)C(c1ccc(OC)c(OC)c1)CC2=NOC(C)=O (centres unmarked)
Data returned: 13

Data request: Form entry - test system: 5-lipoxygenase (Homo sapiens, UniProt P09917); read-out: inhibition at 15 µM; compound: COc1cc(OC)cc(C2CCC(=O)c3c(OC)cc(OC)cc3C2(C)C)c1 (centres unmarked)
Data returned: 46

Data request: Form entry - test system: 5-lipoxygenase (Homo sapiens, UniProt P09917); read-out: inhibition at 15 µM; compound: "COc1cc(OC)c2c(c1)C(C)(C)C(c1ccc(OC)c(OC)c1)=C(C)C2=O"
Data returned: 1

Data request: Form entry - test system: 5-lipoxygenase (Homo sapiens, UniProt P09917); read-out: inhibition at 15 µM; compound: COc1cc(O)c2c(c1)C(C)(C)C(c1ccc(OC)c(OC)c1)CC2=O (centres unmarked)
Data returned: 0

Data request: Form entry - test system: 5-lipoxygenase (Homo sapiens, UniProt P09917); read-out: inhibition at 15 µM; compound: COc1cc(OC)c2c(c1)C(C)(C)C(c1ccc(OC)c(OC)c1)CC(=O)N2 (centres unmarked) [drawing 89 [X=NH; R3/R4=O; P=OCH3]]
Data returned: 0

Data request: Form entry - test system: 5-lipoxygenase (Homo sapiens, UniProt P09917); read-out: inhibition at 15 µM; compound: COc1cc(OC)c2c(c1)C(C)(C)C(c1ccc(OC)c(OC)c1)CC2N (centres unmarked)
Data returned: 0

Data request: Form entry - test system: 5-lipoxygenase (Homo sapiens, UniProt P09917); read-out: inhibition at 15 µM; compound: COc1ccc(C2CC(=O)Cc3c(OC)cccc3C2(C)C)cc1OC (centres unmarked)
Data returned: 61

Data request: Form entry - test system: 5-lipoxygenase (Homo sapiens, UniProt P09917); read-out: inhibition at 15 µM; compound: COc1cc(OC)c2c(c1)C(C)(C)C(c1ccc(OC)c(OC)c1)CC(=NO)C2 (centres unmarked) [drawing 89 [X=CH2; R3/R4=NOH; P=OCH3]]
Data returned: 87

Data request: Form entry - test system: 5-lipoxygenase (Homo sapiens, UniProt P09917); read-out: inhibition at 15 µM; compound: COc1cc(OC)c2c(c1)C(C)(C)C(c1ccc(OC)c(OC)c1)CC(Sc1ccccc1)C2=O (centres unmarked)
Data returned: 61

Data request: Form entry - test system: 5-lipoxygenase (Homo sapiens, UniProt P09917); read-out: inhibition at 15 µM; compound: COc1ccc(CC2(Cc3ccc(OC)cc3)CC(C)(C)c3cc(OC)cc(OC)c3C2=O)cc1 [drawing 102 [A=drawing 104; B=drawing 105]]
Data returned: 88

Data request: Form entry - test system: 5-lipoxygenase (Homo sapiens, UniProt P09917); read-out: inhibition at 15 µM; compound: COc1cc(OC)c2c(c1)C(C)(C)C(c1ccc(OC)c(OC)c1)C(C)C2=NO (centres unmarked)
Data returned: 31

Data request: Form entry - test system: 5-lipoxygenase (Homo sapiens, UniProt P09917); read-out: inhibition at 15 µM; compound: COc1ccc2c(c1)C(C)(C)C(c1ccc(OC)c(OC)c1)CCN2 (centres unmarked) [drawing 89 [X=NH; R3/R4=H,H; P=H]]
Data returned: 73

Data request: Form entry - test system: 5-lipoxygenase (Homo sapiens, UniProt P09917); read-out: inhibition at 15 µM; compound: COc1cc(OC)c2c(c1)C(C)(C)C(c1ccc(OC)c(OC)c1)C(C)C(=O)O2 (centres unmarked) [drawing 106 [X=O; R3/R4=O; J=CH3; L,P=OCH3]]
Data returned: 20

Data request: Form entry - test system: 5-lipoxygenase (Homo sapiens, UniProt P09917); read-out: inhibition at 15 µM; compound: COc1cc(OC)c2c(c1)C(C)(C)C(c1ccc(OC)c(OC)c1)CCC2=NO (centres unmarked) [drawing 90 [X=NOH; W=H; J=H]]
Data returned: 2

Data request: Form entry - test system: 5-lipoxygenase (Homo sapiens, UniProt P09917); read-out: inhibition at 15 µM; compound: COc1cc(OC)c2c(c1)C(C)(C)C(c1ccc(OC)c(OC)c1)CC2=NNC(=O)c1ccccc1O (centres unmarked)
Data returned: 41
